Reference source: patent US5210193A

Test system: Serratia marcescens K 84-18
Assay: in vitro antibacterial MIC, agar plate dilution
Type: cell-based
Conditions: Serratia marcescens, K8418, 18 h, 35° C., read-out: MIC
quantityName: MIC

INSERT INTO measurements (compound, quantityname, observedresult) VALUES
  ('COCC1CN(c2cc3c(cc2F)c(=O)c(C(=O)O)cn3C2CC2)CCN1 (stereo not drawn)', 'MIC', '0.5 µg/mL'),
  ('CCn1cc(C(=O)O)c(=O)c2cc(F)c(N3CCN(C)C(c4cc5cc(Cl)ccc5o4)C3)cc21 (stereo not drawn)', 'MIC', '> 256 µg/mL'),
  ('CCn1cc(C(=O)O)c(=O)c2cc(F)c(N3CCNC(c4cccnc4)C3)cc21 (stereo not drawn)', 'MIC', '1 µg/mL'),
  ('CCn1cc(C(=O)O)c(=O)c2cc(F)c(N3CCN(C)C(CF)C3)c(F)c21 (single isomer, unassigned) [Example 114]', 'MIC', '1 µg/mL'),
  ('CCn1cc(C(=O)O)c(=O)c2cc(F)c(N3CCN(C)C(c4sc5ccccc5c4C)C3)cc21 (stereo not drawn)', 'MIC', '> 256 µg/mL'),
  ('CCCCCCOCC1CN(c2cc3c(cc2F)c(=O)c(C(=O)O)cn3CC)CCN1C (stereo not drawn)', 'MIC', '> 256 µg/mL');

----------
We begin with a simple list: items and their reported MIC.
Test system: Escherichia coli CMC 84-11
Assay: in vitro antibacterial MIC, agar plate dilution
Format: cell-based
Details: Escherichia coli, CMC8411, 18 h, 35° C., read-out: MIC
quantityName: MIC

INSERT INTO results (compound, observedresult) VALUES
  ('CCn1cc(C(=O)O)c(=O)c2cc(F)c(N3CCN(C)C(c4cccs4)C3)cc21 (stereo not shown)', '4 µg/mL'),
  ('CCn1cc(C(=O)O)c(=O)c2cc(F)c(N3CCNC(C(C)(F)F)C3)c(F)c21 (stereo not shown)', '0.12 µg/mL'),
  ('CCn1cc(C(=O)O)c(=O)c2cc(F)c(N3CCNC(COC)C3)cc21 (stereo not shown)', '0.25 µg/mL'),
  ('CCn1cc(C(=O)O)c(=O)c2cc(F)c(N3CCNC(CN4CCN(C)CC4)C3)cc21 (stereo not shown)', '8 µg/mL'),
  ('CCn1cc(C(=O)O)c(=O)c2cc(F)c(N3CCNC(c4ccn(S(=O)(=O)c5ccccc5)c4)C3)cc21 (stereo not shown)', '4 µg/mL'),
  ('CCn1cc(C(=O)O)c(=O)c2cc(F)c(N3CCNC(c4sccc4C)C3)cc21 (stereo not shown)', '4 µg/mL'),
  ('COCC1CN(c2cc3c(cc2F)c(=O)c(C(=O)O)cn3C2CC2)CCN1 (stereo not shown)', '0.03 µg/mL'),
  ('CCn1cc(C(=O)O)c(=O)c2cc(F)c(N3CCNC(CF)C3)c(F)c21 (racemic) [Example 63]', '0.06 µg/mL'),
  ('O=C(O)c1cn(C2CC2)c2cc(N3CCNC(c4cc[nH]n4)C3)c(F)cc2c1=O (stereo not shown)', '0.06 µg/mL'),
  ('CCn1cc(C(=O)O)c(=O)c2cc(F)c(N3CCN(C)C(c4ccc(Br)s4)C3)cc21 (stereo not shown)', '> 256 µg/mL');
